TEST_DETAILS: gradient 5% acetonitrile 3 min, to 50% in 2 min, to 85% in 15 min, held 3 min, 100 µL/min
ASSAY_CONDITIONS: column: Zorbax Extend-C18 2.1 x 50 mm; eluents: water / acetonitrile, 0.1% formic acid
ASSAY_ENDPOINT: RP-LC retention time (s)
The answer is to be given in s; state only the numeric part.

# annotated cases, reported RP-LC retention time shown
Cc1ccc(-c2cn3c(n2)N(C(=O)c2sc(C)nc2C)CCC3)cc1
642
CC1CCc2nc(NC(=O)CSc3nnc(-c4ccccc4)o3)sc2C1 (stereo not given)
989
Cc1ccc(N2CCC(NC(=O)c3ccc(C)s3)C2=O)cc1 (stereo not given)
842
CC(Cc1ccco1)NC(=O)c1cc(S(=O)(=O)N2CCCCCC2)ccc1Cl (stereo not given)
1010

Consider now this further compound.
## Task Consider the compound COc1ccc(NC(=O)NC2CCN(c3ccc(F)cc3)C2=O)cc1F (stereo not given) and give its measured RP-LC retention time.
## Result 781

###

TEST_DETAILS: gradient 5% acetonitrile 3 min, to 50% in 2 min, to 85% in 15 min, held 3 min, 100 µL/min
ASSAY_CONDITIONS: column: Zorbax Extend-C18 2.1 x 50 mm; eluents: water / acetonitrile, 0.1% formic acid
Param threshold (800 s) applies to RP-LC retention time; output rule met when value >= threshold, rule not met when value < threshold.

## Task # check: RP-LC retention time of COc1ccc(-c2nnc(-c3ccccc3)o2)cc1S(=O)(=O)Nc1cccnc1 is greater than or equal to 800 s
## Result rule not met

## Task # check: RP-LC retention time of CC1CCC(NC(=O)c2cc3sccc3n2Cc2ccc(F)cc2)CC1 (stereo not drawn) is greater than or equal to 800 s
## Result rule met

## Task # check: RP-LC retention time of Cc1ccc(N2CC(c3noc(-c4cc(C)cc(C)c4)n3)CC2=O)cc1 (stereo not drawn) is greater than or equal to 800 s
## Result rule met

## Task # check: RP-LC retention time of CCC(C(=O)N1CCN(c2ncccn2)CC1)n1c2ccccc2c2cnn(C)c(=O)c21 (stereo not drawn) is greater than or equal to 800 s
## Result rule met

## Task # check: RP-LC retention time of Cc1nc(Nc2ccc(F)cn2)sc1C(=O)NC(C)c1ccccc1 (stereo not drawn) is greater than or equal to 800 s
## Result rule met

## Task # check: RP-LC retention time of COc1ccccc1OCC(=O)Nc1ccc2c(c1)N(C(=O)c1ccco1)CCC2 is greater than or equal to 800 s
## Result rule met

## Task # check: RP-LC retention time of CNC(=O)C1CCN(C(=O)Nc2ccc(NC(=O)Nc3ccc(C)cc3C)cc2)CC1 is greater than or equal to 800 s
## Result rule not met

## Task # check: RP-LC retention time of Cc1ccc(CNC(=O)CCc2c(C)nn(-c3cc(N4CCOCC4)ncn3)c2C)o1 is greater than or equal to 800 s
## Result rule not met

## Task # check: RP-LC retention time of CCOc1ccc(C(=O)N2CCN(c3cnn4c(C5CC5)nnc4c3)CC2)cc1 is greater than or equal to 800 s
## Result rule not met

## Task # check: RP-LC retention time of CN(C)C[C@@H]1CN(Cc2cccnc2)C[C@H]1NC(=O)C1(c2ccccc2)CC1 is greater than or equal to 800 s
## Result rule not met

## Task # check: RP-LC retention time of Cc1c(Cl)cccc1S(=O)(=O)N1CCc2c(c(-c3nnc(-c4ccccc4F)o3)nn2C)C1 is greater than or equal to 800 s
## Result rule met

## Task # check: RP-LC retention time of C=CCNC(=O)C1CCN(C(=O)Nc2ccc(NC(=O)Nc3cccc(F)c3)cc2)CC1 is greater than or equal to 800 s
## Result rule not met

## Task # check: RP-LC retention time of Cc1ccc(NC(=O)C2CCN(S(=O)(=O)c3cc(C(=O)N4CCCC4)n(C)c3)CC2)cc1C is greater than or equal to 800 s
## Result rule met

## Task # check: RP-LC retention time of CC(C)CCC(=O)N1CCN(c2nc(CN3CCOCC3)cs2)CC1 is greater than or equal to 800 s
## Result rule not met

## Task # check: RP-LC retention time of CC(=O)N1CCc2cc(N3CC(C(=O)Nc4cc(F)ccc4F)CC3=O)ccc21 (stereo not drawn) is greater than or equal to 800 s
## Result rule not met

## Task # check: RP-LC retention time of Cc1ccc(CNC(=O)N2CC=C(c3cn(C(C)C)c4ncccc34)CC2)cc1 is greater than or equal to 800 s
## Result rule met

## Task # check: RP-LC retention time of Cc1ccc2c(c1)N(S(C)(=O)=O)CCC(C(=O)Nc1ccccc1)O2 (stereo not drawn) is greater than or equal to 800 s
## Result rule met

## Task # check: RP-LC retention time of CCCC1O[C@@H]2C[C@H]3[C@@H]4CCC5=CC(=O)C=C[C@]5(C)[C@H]4[C@@H](O)C[C@]3(C)[C@]2(C(=O)CO)O1 (stereo partly drawn) is greater than or equal to 800 s
## Result rule met

###

Below, each entry is listed alongside its reported RP-LC retention time.
TEST_DETAILS: gradient 5% acetonitrile 3 min, to 50% in 2 min, to 85% in 15 min, held 3 min, 100 µL/min
ASSAY_CONDITIONS: column: Zorbax Extend-C18 2.1 x 50 mm; eluents: water / acetonitrile, 0.1% formic acid
The answer is to be given in s; state only the numeric part.

# annotated cases, reported RP-LC retention time shown
COc1cccc(NC(=O)c2[nH]c3cc(C)sc3c2CN2CCOCC2)c1
685
Cc1ccc(Nc2c(-c3ccccc3)nc3ccccn23)cc1
694

Consider now this further compound.
## Task Consider the compound CC1(C(=O)NCc2ccccc2)CCCN(C(=O)NCc2ccccc2)C1 (stereo not drawn) and give its measured RP-LC retention time.
## Result 810

###

Below, each entry is listed alongside its reported RP-LC retention time.
TEST_DETAILS: gradient 5% acetonitrile 3 min, to 50% in 2 min, to 85% in 15 min, held 3 min, 100 µL/min
ASSAY_CONDITIONS: column: Zorbax Extend-C18 2.1 x 50 mm; eluents: water / acetonitrile, 0.1% formic acid
The answer is to be given in s; state only the numeric part.

# annotated cases, reported RP-LC retention time shown
Cc1nc(C2CCCCN2C(=O)c2ccco2)n[nH]1 (centres undefined)
593
CCC(C)NC(=O)CCc1c(-c2ccc(Cl)cc2)nc2ccccn12 (centres undefined)
653
CCN(CC)CCNC(=O)c1ccc2c(c1)N(S(C)(=O)=O)CC2
554
COc1ccc(Cl)cc1C(=O)Nc1ccc(-c2nc(C)no2)cc1
719
COc1ccc(OC)c(NC(=O)Cn2nc3c4ccc(Cl)cc4ncn3c2=O)c1
740
O=C1NCCCCCN(C(=O)CC2CCCCC2)[C@@H]2C[C@@H](C(=O)N3CCc4ccccc4C3)C[C@H]12
933
CCN(CC)S(=O)(=O)c1cc(-c2nnc(-c3ccccc3)o2)ccc1C
1080
Cc1cc(Cl)ccc1OCc1nc(-c2ccc3c(c2)ncn3CCC(=O)N2CCCC2)no1
889

## Task Consider the molecule CCC1CN(C(=O)N2CCC(C(=O)NCCCN3CCN(C)CC3)CC2)c2cc(C)ccc2O1 (centres undefined) and give its measured RP-LC retention time.
## Result 617

## Task Consider the molecule O=c1c2cc(-c3ccc(F)cc3)nn2ccn1Cc1noc(CN2CCCC2)n1 and give its measured RP-LC retention time.
## Result 638

## Task Consider the molecule Cc1cccc(Cn2c(CN3CCC(C(=O)NCCc4ccco4)CC3)cc3ccccc32)c1 and give its measured RP-LC retention time.
## Result 800

###

Below, each entry is listed alongside its reported RP-LC retention time.
TEST_DETAILS: gradient 5% acetonitrile 3 min, to 50% in 2 min, to 85% in 15 min, held 3 min, 100 µL/min
ASSAY_CONDITIONS: column: Zorbax Extend-C18 2.1 x 50 mm; eluents: water / acetonitrile, 0.1% formic acid
The answer is to be given in s; state only the numeric part.

# annotated cases, reported RP-LC retention time shown
O=C1NCCCCCCN(Cc2ccncc2)[C@@H]2CN(C3CCC3)CC[C@H]12
559
CCCCS(=O)(=O)N1CC(c2noc(-c3cccnc3)n2)C2(CCOCC2)C1 (stereo not drawn)
788
O=C(N[C@H]1C[C@@H]2C[C@H]1N(C(=O)c1ccc(Cl)s1)C2)c1cccs1
850

## Task Consider the molecule CC(=O)N(C)CCc1noc(C2CN(C(=O)c3c(C)noc3C)C2)n1 and give its measured RP-LC retention time.
## Result 595

## Task Consider the molecule O=C(Nc1nc(C(=O)NCc2nc(-c3ccccc3)no2)co1)c1ccsc1 and give its measured RP-LC retention time.
## Result 707

## Task Consider the molecule CCCS(=O)(=O)N1CC(n2cc(C(=O)N3CCCC3)nn2)C1 and give its measured RP-LC retention time.
## Result 654
